Tested on: Staphylococcus aureus
TEST_METHOD_NOTES: Antibacterial activity against Staphylococcus aureus after 24 hrs by MTT assay
Assay type: functional
METRIC: MIC (µg/mL)

1. CCCNCCCOc1cc(O)c2c(=O)cc(-c3ccccc3)oc2c1: 12.5

A. O=c1cc(-c2ccccc2)oc2cc(OCCCN3CCNCC3)cc(O)c12
B. O=c1cc(-c2ccccc2)oc2cc(OCCN3CCCCC3)cc(O)c12
Identify the item whose MIC is the smaller number: A or B Kindly give the label for the entry you pick. A

I. O=c1cc(-c2ccccc2)oc2cc(OCCN3CCCC3)cc(O)c12
II. NC[C@H]1O[C@H](O[C@H]2[C@H](O)[C@@H](O[C@H]3O[C@H](CO)[C@@H](O)[C@H](N)[C@H]3O)[C@H](N)C[C@@H]2N)[C@H](N)[C@@H](O)[C@@H]1O [BEKANAMYCIN]
III. CCCNCCOc1cc(O)c2c(=O)cc(-c3ccccc3)oc2c1
IV. O=c1cc(-c2ccccc2)oc2cc(OCCCN3CCCC3)cc(O)c12
V. CCCCNCCCOc1cc(O)c2c(=O)cc(-c3ccccc3)oc2c1
Provide the items ranked by increasing MIC. Please reply with the labels ordered as requested. Many thanks. II, IV, V, I, III
(II: 1.56 µg/mL, IV: 3.13 µg/mL, V: 12.5 µg/mL, I: 25 µg/mL, III: 50 µg/mL)

A. O=c1cc(-c2ccccc2)oc2cc(OCCN3CCNCC3)cc(O)c12
B. CN1CCN(CCCOc2cc(O)c3c(=O)cc(-c4ccccc4)oc3c2)CC1
// which entry has the larger MIC value, A or B ? Kindly give the label for the entry you pick. A

====

Test system: Pseudomonas fluorescens
TEST_METHOD_NOTES: Antibacterial activity against Pseudomonas fluorescens after 24 hrs by MTT assay
Type: functional
METRIC: MIC (µg/mL)

These recorded examples may help you get a feel for the data.
1. O=c1cc(-c2ccccc2)oc2cc(OCCN3CCCCC3)cc(O)c12: 12.5
2. CN1CCN(CCOc2cc(O)c3c(=O)cc(-c4ccccc4)oc3c2)CC1: 25

P. CCCNCCCOc1cc(O)c2c(=O)cc(-c3ccccc3)oc2c1
Q. NC[C@H]1O[C@H](O[C@H]2[C@H](O)[C@@H](O[C@H]3O[C@H](CO)[C@@H](O)[C@H](N)[C@H]3O)[C@H](N)C[C@@H]2N)[C@H](N)[C@@H](O)[C@@H]1O
R. O=c1cc(-c2ccccc2)oc2cc(OCCN3CCNCC3)cc(O)c12
S. CCCN(CCC)CCCOc1cc(O)c2c(=O)cc(-c3ccccc3)oc2c1
Provide the items ranked by increasing MIC. Please reply with the labels ordered as requested. Many thanks. Q, R, P, S

====

Here, each record is paired with measured MIC data.
Tested on: Staphylococcus aureus
TEST_METHOD_NOTES: Antibacterial activity against Staphylococcus aureus after 24 hrs by MTT assay
Type: functional

These recorded examples may help you get a feel for the data.
1. O=c1cc(-c2ccccc2)oc2cc(OCCCNCCO)cc(O)c12: 25 µg/mL
2. CCCCN(CCCC)CCCOc1cc(O)c2c(=O)cc(-c3ccccc3)oc2c1: > 50 µg/mL
3. CN1CCN(CCOc2cc(O)c3c(=O)cc(-c4ccccc4)oc3c2)CC1: 25 µg/mL
4. NCCCNCCOc1cc(O)c2c(=O)cc(-c3ccccc3)oc2c1: > 50 µg/mL
5. CCN(CC)CCOc1cc(O)c2c(=O)cc(-c3ccccc3)oc2c1: > 50 µg/mL

Record request: MIC value, item CCCN(CCC)CCCOc1cc(O)c2c(=O)cc(-c3ccccc3)oc2c1 > 50 µg/mL

Entry CCN(CC)CCCOc1cc(O)c2c(=O)cc(-c3ccccc3)oc2c1 please > 50 µg/mL

Entry CCCCN(CCCC)CCOc1cc(O)c2c(=O)cc(-c3ccccc3)oc2c1 please > 50 µg/mL

Entry O=c1cc(-c2ccccc2)oc2cc(O)cc(O)c12 please > 50 µg/mL

Entry CCCN(CCC)CCOc1cc(O)c2c(=O)cc(-c3ccccc3)oc2c1 please > 50 µg/mL

====

Test system: Pseudomonas fluorescens
TEST_METHOD_NOTES: Antibacterial activity against Pseudomonas fluorescens after 24 hrs by MTT assay
Type: functional
METRIC: MIC (µg/mL)

These recorded examples may help you get a feel for the data.
1) O=c1cc(-c2ccccc2)oc2cc(OCCCN3CCNCC3)cc(O)c12: 12.5
2) O=c1cc(-c2ccccc2)oc2cc(OCCCNCCO)cc(O)c12: 12.5
3) O=c1cc(-c2ccccc2)oc2cc(OCCN3CCCC3)cc(O)c12: 12.5

1. CN1CCN(CCCOc2cc(O)c3c(=O)cc(-c4ccccc4)oc3c2)CC1
2. O=c1cc(-c2ccccc2)oc2cc(OCCCN3CCCC3)cc(O)c12
Identify the item whose MIC is the smaller number: 1 or 2 Kindly give the label for the entry you pick. 2
